# METHOD SUMMARY: Toxicity in BALB/c mouse implanted with mouse 4T1 cells assessed as increase in monocytes at 0.2 mmol/Kg, po administered once every day for 14 days by routine blood analysis
# Format: organism-based
# TEST PARAMETERS: in vivo, 336 h, time 14 day
EXPERIMENTAL ENDPOINT: Activity

                                   compound     result
0  CCCCCCCCCCCCOC(=O)C1CCC[N+]1(C)C.[Cl-] (centres undefined)  Non-Toxic
1  CCCCOC(=O)C1CCC[N+]1(C)C.[Cl-] (centres undefined)  Non-Toxic
2  C[N+]1(C)CCCC1C(=O)[O-] (centres undefined)      Toxic
3  CCCCCCCCOC(=O)C1CCC[N+]1(C)C.[Cl-] (centres undefined)  Non-Toxic

====

# METHOD SUMMARY: Oral bioavailability in Sprague-Dawley rat at 10 mg/kg measured upto 6 hrs by LC-MS/MS analysis
# Type: ADME, organism-based
# TEST PARAMETERS: in vivo
EXPERIMENTAL ENDPOINT: bioavailability (%)

>>> print(df.to_string())
                                   molecule  recorded_number
0  C[N+]1(C)CCCC1C(=O)[O-] (stereo unspecified)              100

====

# METHOD SUMMARY: Tmax in Sprague-Dawley rat plasma at 10 mg/kg, iv measured upto 6 hrs by LC-MS/MS analysis
# Format: ADME, organism-based
EXPERIMENTAL ENDPOINT: Tmax (min)

In [3]: df
Out[3]:
                                   molecule  reading_unit  recorded_number
0  C[N+]1(C)CCCC1C(=O)[O-] (stereo unspecified)           min             1.02

====

# METHOD SUMMARY: Toxicity in BALB/c mouse implanted with mouse 4T1 cells assessed as increase in AST level at 0.2 mmol/Kg, po administered once every day for 14 days by routine blood analysis
# Format: organism-based
# TEST PARAMETERS: in vivo, 336 h, time 14 day
EXPERIMENTAL ENDPOINT: Activity

>>> print(df.to_string())
                                   compound  experimental_endpoint  result
0  CCCCCCCCOC(=O)C1CCC[N+]1(C)C.[Cl-] (centres undefined)               Activity   Toxic
1  CCCCOC(=O)C1CCC[N+]1(C)C.[Cl-] (centres undefined)               Activity   Toxic
2  C[N+]1(C)CCCC1C(=O)[O-] (centres undefined)               Activity   Toxic
3  CCCCCCCCCCCCOC(=O)C1CCC[N+]1(C)C.[Cl-] (centres undefined)               Activity   Toxic

====

# METHOD SUMMARY: Half life in Sprague-Dawley rat plasma at 10 mg/kg, iv measured upto 6 hrs by LC-MS/MS analysis
# Assay type: ADME, organism-based
EXPERIMENTAL ENDPOINT: half-life (min)

>>> print(df.to_string())
                                   compound  experimental_endpoint  recorded_number
0  C[N+]1(C)CCCC1C(=O)[O-] (stereo unspecified)              half-life             69.6

====

# METHOD SUMMARY: Toxicity in BALB/c mouse implanted with mouse 4T1 cells assessed as increase in neutrophil granulocytes at 0.2 mmol/Kg, po administered once every day for 14 days by routine blood analysis
# Type: organism-based
# TEST PARAMETERS: in vivo, 336 h, time 14 day
EXPERIMENTAL ENDPOINT: Activity

>>> print(df.to_string())
                                   compound  experimental_endpoint     result
0  CCCCOC(=O)C1CCC[N+]1(C)C.[Cl-] (centres undefined)               Activity  Non-Toxic
1  CCCCCCCCOC(=O)C1CCC[N+]1(C)C.[Cl-] (centres undefined)               Activity  Non-Toxic
2  CCCCCCCCCCCCOC(=O)C1CCC[N+]1(C)C.[Cl-] (centres undefined)               Activity  Non-Toxic
3  C[N+]1(C)CCCC1C(=O)[O-] (centres undefined)               Activity      Toxic

====

# METHOD SUMMARY: Cmax in Sprague-Dawley rat plasma at 10 mg/kg, po measured upto 24 hrs by LC-MS/MS analysis
# Format: ADME, organism-based
EXPERIMENTAL ENDPOINT: Cmax

                                   compound  experimental_endpoint      result
0  CCCCCCCCCCCCOC(=O)C1CCC[N+]1(C)C.[Cl-] (stereo unspecified)                   Cmax  6100 ng/mL

====

# METHOD SUMMARY: Toxicity in BALB/c mouse implanted with mouse 4T1 cells assessed as increase in lymphocytes at 0.2 mmol/Kg, po administered once every day for 14 days by routine blood analysis
# Type: organism-based
# TEST PARAMETERS: in vivo, 336 h, time 14 day
EXPERIMENTAL ENDPOINT: Activity

                                   compound  experimental_endpoint     result
0  CCCCCCCCOC(=O)C1CCC[N+]1(C)C.[Cl-] (centres undefined)               Activity  Non-Toxic
1  CCCCCCCCCCCCOC(=O)C1CCC[N+]1(C)C.[Cl-] (centres undefined)               Activity  Non-Toxic
2  CCCCOC(=O)C1CCC[N+]1(C)C.[Cl-] (centres undefined)               Activity  Non-Toxic
3  C[N+]1(C)CCCC1C(=O)[O-] (centres undefined)               Activity      Toxic

====

Below: a set of entries, each annotated with reported log10(IC50).
# System: 4T1
# METHOD SUMMARY: Anticancer activity against mouse 4T1 cells assessed as inhibition of cell growth incubated for 24 hrs by CCK-8 assay
# Assay type: functional, cell-based
# TEST PARAMETERS: 4T1, 24 h
EXPERIMENTAL ENDPOINT: log10(IC50) (log10 of the value in µM)

>>> df
                                   molecule  system_name  experimental_endpoint  recorded_number
0  CCCCCCCCCCCCOC(=O)C1CCC[N+]1(C)C.[Cl-] (stereo not given)          4T1            log10(IC50)             1.39
1  CCCCOC(=O)C1CCC[N+]1(C)C.[Cl-] (stereo not given)          4T1            log10(IC50)             3.80
2  CCCCCCCCCCCCCCCCOC(=O)C1CCC[N+]1(C)C.[Cl-] (stereo not given)          4T1            log10(IC50)            -0.07
3  CCOC(=O)C1CCC[N+]1(C)C (stereo not given)          4T1            log10(IC50)             3.23
4  CCCCCCCCCCCCCCCCCCOC(=O)C1CCC[N+]1(C)C (stereo not given)          4T1            log10(IC50)             0.38
5  CCCCCCCCCCOC(=O)C1CCC[N+]1(C)C (stereo not given)          4T1            log10(IC50)             2.31
6  CCCCCCCCOC(=O)C1CCC[N+]1(C)C.[Cl-] (stereo not given)          4T1            log10(IC50)             2.71
7  CCCCCCOC(=O)C1CCC[N+]1(C)C (stereo not given)          4T1            log10(IC50)             3.41
8  C[N+]1(C)CCCC1C(=O)[O-] (stereo not given)          4T1            log10(IC50)             4.59
9  CCCCCCCCCCCCCCOC(=O)C1CCC[N+]1(C)C (stereo not given)          4T1            log10(IC50)             2.22

====

# METHOD SUMMARY: Toxicity in BALB/c mouse implanted with mouse 4T1 cells assessed as increase in white blood cells at 0.2 mmol/Kg, po administered once every day for 14 days by routine blood analysis
# Format: organism-based
# TEST PARAMETERS: in vivo, 336 h, time 14 day
EXPERIMENTAL ENDPOINT: Activity

                                   compound  experimental_endpoint     result
0  C[N+]1(C)CCCC1C(=O)[O-] (centres undefined)               Activity      Toxic
1  CCCCOC(=O)C1CCC[N+]1(C)C.[Cl-] (centres undefined)               Activity  Non-Toxic
2  CCCCCCCCCCCCOC(=O)C1CCC[N+]1(C)C.[Cl-] (centres undefined)               Activity  Non-Toxic
3  CCCCCCCCOC(=O)C1CCC[N+]1(C)C.[Cl-] (centres undefined)               Activity  Non-Toxic
